The reported numbers originate from PubChem BioAssay.

STUDY_SYSTEM: Neurogenic locus notch homolog protein 2 (Homo sapiens) (UniProt Q04721)
Sequence (Q04721 whole entry, looked up): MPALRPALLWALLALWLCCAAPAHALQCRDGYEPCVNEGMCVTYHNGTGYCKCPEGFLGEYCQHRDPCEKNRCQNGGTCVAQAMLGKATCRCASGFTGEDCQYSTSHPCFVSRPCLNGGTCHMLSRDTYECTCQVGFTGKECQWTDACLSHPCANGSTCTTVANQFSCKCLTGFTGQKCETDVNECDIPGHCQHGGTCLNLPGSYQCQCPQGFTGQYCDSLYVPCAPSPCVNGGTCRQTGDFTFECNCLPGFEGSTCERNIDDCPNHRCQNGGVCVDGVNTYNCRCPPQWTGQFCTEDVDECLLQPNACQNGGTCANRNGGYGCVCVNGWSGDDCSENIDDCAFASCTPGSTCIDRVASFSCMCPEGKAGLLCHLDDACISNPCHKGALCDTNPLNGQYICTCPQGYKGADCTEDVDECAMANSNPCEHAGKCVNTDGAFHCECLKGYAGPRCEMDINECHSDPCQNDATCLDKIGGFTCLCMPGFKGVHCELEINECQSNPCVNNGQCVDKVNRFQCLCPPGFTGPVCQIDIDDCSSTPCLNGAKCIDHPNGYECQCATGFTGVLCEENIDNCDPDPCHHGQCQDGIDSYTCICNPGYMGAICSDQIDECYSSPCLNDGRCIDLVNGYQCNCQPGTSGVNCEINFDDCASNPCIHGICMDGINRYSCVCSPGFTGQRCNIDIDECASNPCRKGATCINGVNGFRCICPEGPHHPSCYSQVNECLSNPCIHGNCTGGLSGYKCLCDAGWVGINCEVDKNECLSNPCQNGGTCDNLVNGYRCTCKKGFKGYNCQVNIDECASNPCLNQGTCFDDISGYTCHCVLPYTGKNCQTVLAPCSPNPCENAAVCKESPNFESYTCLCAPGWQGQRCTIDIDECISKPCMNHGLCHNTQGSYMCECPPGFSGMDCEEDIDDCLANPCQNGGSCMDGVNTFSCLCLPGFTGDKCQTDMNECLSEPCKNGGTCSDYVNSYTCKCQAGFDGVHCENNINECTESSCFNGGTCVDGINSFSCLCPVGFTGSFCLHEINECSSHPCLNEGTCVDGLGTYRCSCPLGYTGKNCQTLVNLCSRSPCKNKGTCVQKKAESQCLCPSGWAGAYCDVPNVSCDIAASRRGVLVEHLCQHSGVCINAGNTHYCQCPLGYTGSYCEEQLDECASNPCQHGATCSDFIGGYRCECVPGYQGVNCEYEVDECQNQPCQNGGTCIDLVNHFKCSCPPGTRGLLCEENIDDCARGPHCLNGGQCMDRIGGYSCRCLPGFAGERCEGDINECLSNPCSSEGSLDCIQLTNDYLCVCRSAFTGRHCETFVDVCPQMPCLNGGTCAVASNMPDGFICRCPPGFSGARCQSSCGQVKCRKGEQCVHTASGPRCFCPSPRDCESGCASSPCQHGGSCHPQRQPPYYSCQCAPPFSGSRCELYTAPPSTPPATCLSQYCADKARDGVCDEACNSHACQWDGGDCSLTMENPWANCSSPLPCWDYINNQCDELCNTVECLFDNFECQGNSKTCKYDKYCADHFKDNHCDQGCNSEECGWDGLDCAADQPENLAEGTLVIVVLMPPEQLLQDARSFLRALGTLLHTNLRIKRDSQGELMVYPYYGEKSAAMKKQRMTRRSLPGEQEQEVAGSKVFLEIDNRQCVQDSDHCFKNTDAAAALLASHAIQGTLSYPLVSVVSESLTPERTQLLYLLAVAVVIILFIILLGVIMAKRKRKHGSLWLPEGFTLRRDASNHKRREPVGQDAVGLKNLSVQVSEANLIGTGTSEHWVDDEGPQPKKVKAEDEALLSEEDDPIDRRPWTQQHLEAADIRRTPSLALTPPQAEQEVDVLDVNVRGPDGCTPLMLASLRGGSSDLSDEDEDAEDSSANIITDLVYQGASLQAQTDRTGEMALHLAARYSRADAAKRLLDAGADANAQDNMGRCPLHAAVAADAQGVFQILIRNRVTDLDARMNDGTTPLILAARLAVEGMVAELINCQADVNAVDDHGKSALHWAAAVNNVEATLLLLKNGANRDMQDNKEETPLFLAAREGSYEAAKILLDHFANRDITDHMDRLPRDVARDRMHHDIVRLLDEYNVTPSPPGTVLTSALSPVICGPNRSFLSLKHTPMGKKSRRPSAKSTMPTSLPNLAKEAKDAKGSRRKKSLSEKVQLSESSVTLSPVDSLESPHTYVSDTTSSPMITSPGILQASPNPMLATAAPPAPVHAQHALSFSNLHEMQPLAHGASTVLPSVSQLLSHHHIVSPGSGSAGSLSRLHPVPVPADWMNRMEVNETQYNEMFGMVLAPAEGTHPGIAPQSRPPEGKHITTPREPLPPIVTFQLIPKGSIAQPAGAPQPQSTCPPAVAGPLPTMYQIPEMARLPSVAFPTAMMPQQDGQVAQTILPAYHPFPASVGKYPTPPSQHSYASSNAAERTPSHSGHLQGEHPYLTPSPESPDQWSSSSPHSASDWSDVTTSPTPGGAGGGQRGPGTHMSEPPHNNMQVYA
PROTOCOL: Notch2 binders on small-molecule microarrays, primary screen, biochemical, small-molecule microarray, 635 nm fluorescence, stem cell growth factors (AID 1073)
TEST_CONTEXT: Notch2 binding, higher = more signal
Listed next: entries and their corresponding composite z-score.

COMPOUND: COc1ccc(C#Cc2ccc3c(c2)[C@]2(C(=O)N3)[C@H](c3ccccc3OCCO)N3[C@H](c4ccccc4)[C@H](c4ccccc4)OC(=O)[C@H]3[C@@H]2C(=O)NC[C@H](O)c2ccccc2)cc1
composite z-score: 1
//
COMPOUND: C[C@]1(C(=O)NCC(F)(F)F)c2ccccc2C(=O)N(Cc2cc(C(F)(F)F)cc(C(F)(F)F)c2)[C@H]1c1ccc(CO)cc1
composite z-score: -0.317
//
COMPOUND: C=CC[C@]12N=C(c3ccc(OCCCO)cc3)O[C@H]1c1ccccc1N(CCC)C2=O
composite z-score: 0.481
//
COMPOUND: CC[C@@H](O[Si](C#C[Si](C(C)C)(C(C)C)C(C)C)(C(C)C)C(C)C)c1cn(Cc2cccc(Cl)c2)nn1
composite z-score: 0.863
//
COMPOUND: COc1ccc([Si](C)(C)[C@@H]2[C@@H](CC(=O)N3Cc4ccccc4C[C@H]3CO)O[C@]3(C(=O)N(Cc4ccc(I)cc4)c4ccccc43)[C@H]2C)cc1
composite z-score: 0.472
//
COMPOUND: O=C(NCC(F)(F)F)[C@@H]1c2ccccc2C(=O)N(Cc2cc(C(F)(F)F)cc(C(F)(F)F)c2)[C@H]1c1ccc(CO)cc1
composite z-score: 0.154
//
COMPOUND: COC(=O)[C@H](Cc1ccccc1)N1CC(C)(OC)O[C@@H](Cc2ccccc2)[C@H]1/C=C/C1CC1 (stereo partly drawn)
composite z-score: 0.144
//
COMPOUND: COCCOC(=O)N1C(=O)[C@@]2(c3ccccc31)[C@H](C(=O)Nc1nc3ccccc3s1)[C@H]1C(=O)O[C@H](c3ccccc3)[C@H](c3ccccc3)N1[C@@H]2c1ccccc1OCCO
composite z-score: 1.15
//
COMPOUND: C=C(COC)/C(=C/C[C@@H](OC(=O)c1ccncc1)c1ccccc1OCCO)c1cnc2ccccc2c1
composite z-score: 1.58
//
COMPOUND: [N-]=[N+]=NCc1ccccc1[C@H]1OC(c2ccc(OCCCO)cc2)=N[C@@]1(CCS(=O)(=O)c1ccccc1)C(=O)O
composite z-score: 1.21
//
COMPOUND: Cc1ccc(S[C@]2(C(=O)NCC(C)C)CC(=O)N(C(C)C)[C@@H]2c2ccc(CO)cc2I)cc1
composite z-score: -0.365
//
COMPOUND: CCCCC(=C=CC[C@H](O)c1cccc(OCCO)c1)C[C@H](O)c1cc(Cl)cc(Cl)c1O
composite z-score: -0.107
//
COMPOUND: CN1C(=O)C2C=CC(C(O)COCc3ccccc3)N(Nc3ccc([N+](=O)[O-])cc3[N+](=O)[O-])C2C1=O (stereo not drawn)
composite z-score: 0.172
//
COMPOUND: CCOC(=O)C[C@H]1[C@H](OC(=O)c2cc3ccccc3oc2=O)[C@@H](NC(=O)Cc2ccc(OC)cc2)c2cc(OCCCO)ccc2N1C(=O)Cc1ccc(OC)cc1
composite z-score: 0.791
//
COMPOUND: COc1cc(CO)cc(I)c1O[C@H]1C=C(C(=O)NCCO)C[C@@H](N(CCN2CCOCC2)C(=O)C2CCCO2)[C@@H]1O (stereo partly drawn)
composite z-score: 1.14
//
COMPOUND: COCCOC(=O)N1C(=O)[C@@]2(c3cc(C#CC4=CCCCC4)ccc31)[C@H](C(=O)N1CCCCCCC1)[C@H]1C(=O)O[C@H](c3ccccc3)[C@H](c3ccccc3)N1[C@@H]2c1ccccc1OCCO
composite z-score: 1.08
//
COMPOUND: COC(=O)c1ccc(OC)c(/C=C\CC(OC(=O)c2ccncc2)c2ccccc2)c1 (stereo not drawn)
composite z-score: 0.481
//
COMPOUND: O=C1OCCC/C=C\[C@H]2OC34C=CCN(Cc5ccccc5)C(=O)[C@H]3N(CCO)C(=O)[C@@H]4C12 (stereo partly drawn)
composite z-score: 0.479
//
COMPOUND: C=C[C@@H](CO)NS(=O)(=O)c1ccc(Br)cc1
composite z-score: -1.14
//
COMPOUND: O=C1OCC=C[C@H]2OC34C=CCN(Cn5nnc6ccccc65)C(=O)[C@H]3N(CCO)C(=O)[C@@H]4[C@@H]12 (stereo partly drawn)
composite z-score: -1.45
//
COMPOUND: CCCC[C@@H](O)C1=C(C)Cn2c(=O)n(-c3ccccc3)c(=O)n2[C@H]1CO
composite z-score: -0.362
//
COMPOUND: O=C(N1CCOCC1)[C@]1(CCS(=O)(=O)c2ccccc2)N=C(c2ccc(OCCCO)cc2)O[C@@H]1c1ccccc1
composite z-score: 1.22
//
COMPOUND: C=CCNC(=O)[C@@H]1[C@H]2C(=O)O[C@H](c3ccccc3)[C@H](c3ccccc3)N2[C@H](c2ccc(OCCO)cc2)[C@@]12C(=O)Nc1ccc(C#CCNC(N)=O)cc12
composite z-score: -1.01
//
COMPOUND: C=C[C@H](OC)[C@@H](O)c1ccc(OC)c(O)c1
composite z-score: -1.34
//
COMPOUND: C=CCN1C(=O)[C@]2(O[C@H](CCO)[C@@H]([Si](C)(C)c3ccc(OC)cc3)[C@@H]2C)c2cc(N3C(=O)c4ccccc4Oc4ccccc43)ccc21
composite z-score: 0.0699
//
COMPOUND: CCOC(=O)C[C@H]1[C@H](OC(=O)c2cc3ccccc3oc2=O)[C@@H](NC(=O)c2ccc(-c3ccccc3)cc2)c2cc(OCCCO)ccc2N1C(=O)Cc1ccc(OC)cc1
composite z-score: 0.992
//
COMPOUND: COc1ccc([Si](C)(C)[C@H]2[C@H](CC(=O)N(CCO)Cc3ccccc3)O[C@@]3(C(=O)N(Cc4ccc(N5C(=O)c6cccc7cccc5c67)cc4)c4ccccc43)[C@@H]2C)cc1
composite z-score: 0.141
//
COMPOUND: COC(=O)C[C@H]1O[C@]2(C(=O)N(C)c3ccccc32)[C@@H](C)[C@@H]1[Si](C)(C)c1ccccc1
composite z-score: 0.731
